experiment: HT29 colon tumor cell growth inhibition, primary screen, imaging, high content imaging, 72 h, CellTiter-Glo (AID 772)
run-conditions: HCS imaging cell count, measured here: ATP CellTiter-Glo viability, at 10 µM, stronger effect = higher value
Out of some 3,300 compounds screened, about 20 (0.6%) were called active. The sample as a whole holds a higher share of actives than the screen did.
observation-type: growth inhibition (%)
// return numeric value only (unit: %, not printed)

Below: 4 compounds and their reported growth inhibition.
[[record]]
compound = "COCCOC(=O)c1c(N)n(Cc2ccco2)c2nc3ccccc3nc12"
u = "%"
numeric_value = -49.5

[[record]]
compound = "COc1ccc(C2SCC(=O)Nc3c2c(=O)[nH]n3C2CCCCC2)cc1 (stereo unspecified)"
u = "%"
numeric_value = -9.94

[[record]]
compound = "CC(C)OC(=O)c1c(N)n(Cc2ccco2)c2nc3ccccc3nc12"
u = "%"
numeric_value = -17.3

[[record]]
compound = "CC(C)(C)OC(=O)c1c(N)n(Cc2ccco2)c2nc3ccccc3nc12"
u = "%"
numeric_value = 20.9


Input: Reported growth inhibition, compound "CCN(CC)CCCNC(=O)c1c(O)c2ccccc2n(Cc2ccccc2)c1=O" : ____
Output: 95.7

Input: // growth inhibition lookup, key: "CCCCn1c(O)c(C=NCCN2CCCCC2)c(=O)[nH]c1=O"
Output: -24.2

* * *

experiment: HT29 colon tumor cell growth inhibition, primary screen, imaging, high content imaging, 72 h, CellTiter-Glo (AID 772)
run-conditions: HCS imaging cell count, at 10 µM, stronger effect = higher value
The campaign covered roughly 3,300 compounds. About 20 (0.6%) were called active. This is one part of a sample in which actives are shown more often than they occur.
Reported growth inhibition values for the following molecules.
# unit: % | format: bare number

[[record]]
molecule = "CCCCOCCCn1c(N)c(C(=O)OCCOC)c2nc3ccccc3nc21"
u = "%"
numeric_value = 95.3


Input: Reported growth inhibition, molecule "CC(C)OC(=O)c1c(N)n(Cc2ccco2)c2nc3ccccc3nc12" : ____
Output: 31.4

Input: // lookup growth inhibition for "COCCOC(=O)c1c(N)n(Cc2ccco2)c2nc3ccccc3nc12"
Output: -33.9

Input: Fill blank: measured growth inhibition of the molecule "CCN(CC)CCCNC(=O)c1c(O)c2ccccc2n(Cc2ccccc2)c1=O" is ____.
Output: 84.5

Input: For the molecule shown here, Clc1ccc(CSC(Cn2ccnc2)c2ccc(Cl)cc2Cl)cc1 (stereo not given) , give the reported growth inhibition.
Output: 57.5

* * *

Below: a set of entries, each annotated with reported condensed nuclei.
experiment: HT29 colon tumor cell growth inhibition, primary screen, imaging, high content imaging, 72 h, CellTiter-Glo (AID 772);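 on condensed nuclei: condensed means nuclear area below control median minus 1.5 SD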
run-conditions: HCS imaging cell count, measured here: percent cells with condensed nuclei, at 10 µM, stronger effect = higher value
The whole screen tested about 3,300 compounds, of which about 20 (0.6%) were called active. The sample holds actives, similar compounds and a random draw of the others, so the mix is not that of the screen.
Output spec: scalar in %, unitless text.

Below, 5 molecules whose answers are already recorded.
[[record]]
molecule = "CCCCOCCCn1c(N)c(C(=O)OCCOC)c2nc3ccccc3nc21"
observation_type = "condensed nuclei"
u = "%"
numeric_value = 17.2

[[record]]
molecule = "CC(C)OC(=O)c1c(N)n(Cc2ccco2)c2nc3ccccc3nc12"
observation_type = "condensed nuclei"
u = "%"
numeric_value = 3.52

[[record]]
molecule = "COc1ccc(C2SCC(=O)Nc3c2c(=O)[nH]n3C2CCCCC2)cc1 (stereo unspecified)"
observation_type = "condensed nuclei"
u = "%"
numeric_value = 12.4

[[record]]
molecule = "COCCOC(=O)c1c(N)n(Cc2ccco2)c2nc3ccccc3nc12"
observation_type = "condensed nuclei"
u = "%"
numeric_value = 3.83

[[record]]
molecule = "Clc1ccc(CSC(Cn2ccnc2)c2ccc(Cl)cc2Cl)cc1 (stereo unspecified)"
observation_type = "condensed nuclei"
u = "%"
numeric_value = 13.6


Switching to the query record.
Input: For the molecule shown here, "CCN(CC)CCCNC(=O)c1c(O)c2ccccc2n(Cc2ccccc2)c1=O" , give the reported condensed nuclei.
Output: 16

The reported numbers originate from PubChem BioAssay AID772.
